Data credit: BindingDB's records for doi:10.1016/j.bmc.2010.03.023

target: Thymidine kinase (Ureaplasma parvum serovar 3 (strain ATCC 700970)); assay: Inhibition of Ureaplasma parvum thymidine kinase by liquid scintillation counting
Sequence (Q9PPP5 whole entry): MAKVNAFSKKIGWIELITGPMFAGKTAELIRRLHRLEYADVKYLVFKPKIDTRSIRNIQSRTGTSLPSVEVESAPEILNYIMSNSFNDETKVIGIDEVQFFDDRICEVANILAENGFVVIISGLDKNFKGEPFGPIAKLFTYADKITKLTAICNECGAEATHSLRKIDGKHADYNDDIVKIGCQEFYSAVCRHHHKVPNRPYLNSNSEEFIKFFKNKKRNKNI
Assay metric: IC50 (µM)

{"Test smiles": "Cc1cn([C@H]2C[C@H](n3cc(-c4ccccn4)nn3)[C@@H](CO)O2)c(=O)[nH]c1=O", "Reported measurement": 211}

a = Cc1cn([C@H]2C[C@H](n3cc(-c4ccccc4)nn3)[C@@H](CO)O2)c(=O)[nH]c1=O
b = Cc1cn([C@H]2C[C@H](n3cc(C(C)(C)C)nn3)[C@@H](CO)O2)c(=O)[nH]c1=O
c = Cc1cn([C@H]2C[C@H](n3cc(CCc4ccccc4)nn3)[C@@H](CO)O2)c(=O)[nH]c1=O
Rank the items in ascending order with respect to IC50. Labels, ranked as asked.
c, a, b
(c: 120 µM, a: 200 µM, b: 318 µM)
